Catalogue of cell viability (log2) values
Test system: A673/TR/shEF
experiment_notes: cell viability (LOESS-normalised, relative to median of negative controls) (log2 ratio); higher = more viable cells (less compound effect), active = hit call of the paper (over 3 MAD below the median)
conditions_used: 0.25 µM; library screen: screen1; EWS-FLI1 expression: high (no doxycycline); treatment time: 72 h
Hit rate of the full screen: of about 3,200 compounds, about 300 (9.4%) showed activity. The sample holds actives, similar compounds and a random draw of the others, so the mix is not that of the screen.
# respond with the number and nothing more

CC1(C)Oc2ccc3ccc(=O)oc3c2C[C@H]1O	0.0366
C[C@H]1O[C@@H](n2cc(F)c(=O)[nH]c2=O)[C@H](O)[C@@H]1O	-0.21
O=C(Nc1c(-c2ccccc2)nc2ccc(Cl)cn12)c1ccc(F)cc1	0.0947
CC(=O)O[C@H]1C[C@@H](OC(C)=O)C(C)(C)C2C[C@@H](OC(C)=O)[C@@]3(C)C4=CC(=O)OC(=O)[C@]4(C)CCC3[C@]21C (stereo partly drawn)	0.0349
CC1(C)C[C@@H]2C(=O)CC[C@@H]3O[C@]3(C)CC[C@H]21	0.14

Param readout = cell viability (log2); param system = A673/TR/shEF; param query = CC1=C(C(=O)OCC2CCCO2)C(c2coc3ccccc3c2=O)C2=C(CCCC2=O)N1 (stereo not drawn) ; response: value
0.0728

Param readout = cell viability (log2); param system = A673/TR/shEF; param query = COc1cc(C2NC(=S)NC(C)=C2C(=O)Nc2cccc(Cl)c2)cc(OC)c1OC (stereo not drawn) ; response: value
0.123

Param readout = cell viability (log2); param system = A673/TR/shEF; param query = CC(C)CCCC(C)C1CCC2C3CCC4CC(=O)CCC4(C)C3CCC12C (stereo not drawn) ; response: value
0.027

Param readout = cell viability (log2); param system = A673/TR/shEF; param query = C=C1CCC2C(CC2(C)C)C(=C)CCC1=NO (stereo not drawn) ; response: value
0.105

Param readout = cell viability (log2); param system = A673/TR/shEF; param query = "COc1ccc(-c2nn(-c3ccccc3)cc2C=O)cc1[N+](=O)[O-]" ; response: value
0.000395

Param readout = cell viability (log2); param system = A673/TR/shEF; param query = "Cc1cn([C@H]2C[C@H](N=[N+]=[N-])[C@@H](CO)O2)c(=O)[nH]c1=O" ; response: value
-0.142

* * *

System: A673/TR/shEF
experiment_notes: cell viability (LOESS-normalised, relative to median of negative controls) (log2 ratio); higher = more viable cells (less compound effect), active = hit call of the paper (over 3 MAD below the median)
conditions_used: 8.3 µM; library screen: screen3; EWS-FLI1 expression: low (doxycycline-induced shRNA knockdown); treatment time: 72 h
Out of some 3,200 compounds screened, about 300 (9.4%) showed activity. This is one part of a sample in which actives are shown more often than they occur.
Please state which outcome applies, choosing from active, inactive

In this assay, the call recorded for "CC[C@]1(O)C[C@H]2CN(CCc3c([nH]c4ccccc34)[C@@](C(=O)OC)(c3cc4c(cc3OC)N(C=O)[C@H]3[C@@](O)(C(=O)OC)[C@H](OC(C)=O)[C@]5(CC)C=CCN6CC[C@]43[C@@H]65)C2)C1" was what?
active

In this assay, the call recorded for "COc1cc([C@@H]2c3cc4c(cc3[C@@H](O[C@@H]3O[C@@H]5CO[C@@H](C)O[C@H]5[C@H](O)[C@H]3O)[C@H]3COC(=O)[C@H]23)OCO4)cc(OC)c1O" was what?
active

In this assay, the call recorded for C[N+]1(C)[C@@H]2CC(OC(=O)C(O)(c3cccs3)c3cccs3)C[C@H]1[C@@H]1O[C@@H]12 (some centres undefined) was what?
inactive

In this assay, the call recorded for "CC(C)(O)[C@@H]1CC[C@](C)([C@H]2[C@@H](O)C[C@@]3(C)[C@@H]4C[C@H](O[C@@H]5O[C@H](CO)[C@@H](O)[C@H](O)[C@H]5O)[C@H]5C(C)(C)[C@@H](O[C@@H]6OC[C@@H](O)[C@H](O)[C@H]6O)CC[C@@]56C[C@@]46CC[C@]23C)O1" was what?
inactive

In this assay, the call recorded for "[Cl][Pt+2][Cl].[NH2-].[NH2-]" was what?
inactive

In this assay, the call recorded for "CCC1=C[C@@H]2CN(C1)Cc1c([nH]c3ccccc13)[C@@](C(=O)OC)(c1cc3c(cc1OC)N(C)[C@H]1[C@@](O)(C(=O)OC)[C@H](OC(C)=O)[C@]4(CC)C=CCN5CC[C@]31[C@@H]54)C2" was what?
active

In this assay, the call recorded for "COc1cc([C@@H]2c3cc4c(cc3[C@@H](O[C@@H]3O[C@@H]5CO[C@@H](c6cccs6)O[C@H]5[C@H](O)[C@H]3O)[C@H]3COC(=O)[C@H]23)OCO4)cc(OC)c1O" was what?
active

In this assay, the call recorded for "CN1CCN(CCOc2cc(OC3CCOCC3)c3c(Nc4c(Cl)ccc5c4OCO5)ncnc3c2)CC1" was what?
active

In this assay, the call recorded for "Oc1ccc(OCc2ccccc2)cc1" was what?
inactive

* * *

Tested on: A673/TR/shEF
experiment_notes: cell viability (LOESS-normalised, relative to median of negative controls) (log2 ratio); higher = more viable cells (less compound effect), active = hit call of the paper (over 3 MAD below the median)
conditions_used: 8.3 µM; library screen: screen3; EWS-FLI1 expression: high (no doxycycline); treatment time: 72 h
In all, about 3,200 compounds went through this assay and about 300 (9.4%) showed activity. For the sample, actives were picked, then their nearest neighbours and some compounds at random.
endpoint_name: cell viability (log2)
# respond with the number and nothing more

COc1nc(N)nc2c1ncn2[C@@H]1O[C@H](CO)[C@@H](O)[C@@H]1O	0.0218
CCCCCCCCc1ccc(CCC(N)(CO)CO)cc1	-0.0193
CCCSc1ccc2nc(NC(=O)OC)[nH]c2c1	-1.81
FC(F)(F)c1ccc(/C=C/c2nc(COc3ccc(CCCCn4ccnn4)cc3)co2)cc1	-1.63
C[N+]1(C)C2CC(OC(=O)C(O)(c3cccs3)c3cccs3)CC1C1OC12 (stereo unspecified)	0.0784

Recorded cell viability (log2) for "c1ccc([C@H]2CN3CCSC3=N2)cc1" , please?
0.12

Recorded cell viability (log2) for "CCN(CC)CC(=O)Nc1c(C)cccc1C" , please?
0.0246

Recorded cell viability (log2) for "O=C1[C@H](Cc2ccc(O)cc2)N2C(=O)CCN(C(=O)NCc3ccccc3)[C@H]2CN1Cc1cccc2ccccc12" , please?
-0.0756

Recorded cell viability (log2) for "CC(C)C[C@H](NC(=O)[C@H](Cc1ccccc1)NC(=O)c1cnccn1)B(O)O" , please?
-4.26

Recorded cell viability (log2) for "O=c1c(-c2ccc(O)cc2)coc2cc(O)ccc12" , please?
0.161

Recorded cell viability (log2) for "Cn1cc(C2=C(c3ccc(Cl)cc3Cl)C(=O)NC2=O)c2ccccc21" , please?
0.0741

* * *

Test system: A673/TR/shEF
experiment_notes: cell viability (LOESS-normalised, relative to median of negative controls) (log2 ratio); higher = more viable cells (less compound effect), active = hit call of the paper (over 3 MAD below the median)
conditions_used: 2.5 µM; library screen: screen1; EWS-FLI1 expression: low (doxycycline-induced shRNA knockdown); treatment time: 72 h
Hit rate of the full screen: of about 3,200 compounds, about 300 (9.4%) showed activity. This is one part of a sample in which actives are shown more often than they occur.
Catalogue of cell viability (log2) values
# respond with the number and nothing more

Param readout = cell viability (log2); param system = A673/TR/shEF; param query = CC1=C(C(=O)Nc2cccc(Cl)c2)C(c2cccs2)NC(=S)N1 (stereo not given) ; response: value
0.108

Param readout = cell viability (log2); param system = A673/TR/shEF; param query = "CC(C)[C@@H](C)/C=C/[C@@H](C)[C@H]1CC[C@H]2C3=CC=C4C[C@@H](O)CC[C@]4(C)[C@H]3CC[C@]12C" ; response: value
0.0538

Param readout = cell viability (log2); param system = A673/TR/shEF; param query = "C[C@@H]1CC[C@H]2[C@](C)(CO)[C@@H](O)CC[C@]2(C)[C@@]12CC[C@@](CO)(CCO)O2" ; response: value
0.112

Param readout = cell viability (log2); param system = A673/TR/shEF; param query = "C=CCc1ccc(O)c(OC)c1" ; response: value
0.12

Param readout = cell viability (log2); param system = A673/TR/shEF; param query = "C[C@@H]1CC[C@@]2(OC1)O[C@H]1C[C@H]3[C@@H]4CC[C@@H]5C[C@@H](O)CC[C@]5(C)[C@H]4CC[C@]3(C)[C@H]1[C@@H]2C" ; response: value
0.0287

Param readout = cell viability (log2); param system = A673/TR/shEF; param query = "C=CCc1ccc(OC(=O)c2ccccc2)c(OC)c1" ; response: value
0.0334

Param readout = cell viability (log2); param system = A673/TR/shEF; param query = "CCCCCCCCCCCCC/C=C/[C@@H](O)[C@@H](N)CO" ; response: value
0.0695

Param readout = cell viability (log2); param system = A673/TR/shEF; param query = "CC(=O)c1cc2c(cc1O)OC(C)(C)C=C2" ; response: value
0.0912

Param readout = cell viability (log2); param system = A673/TR/shEF; param query = "CSCC[C@H](NC=O)C(=O)N[C@@H](Cc1ccccc1)C(=O)O" ; response: value
0.113

Param readout = cell viability (log2); param system = A673/TR/shEF; param query = "N#C/C(=C\c1cccc(Cl)c1)c1nc2ccccc2[nH]1" ; response: value
0.148
